# Test system: Eimeria tenella
# test details: In vitro efficacy against Eimeria tenella in infected MDBK cell culture (schizonts/merozoites counted microscopically)
# Assay type: cell-based
# Design: dose or concentration left out as unconfirmed
# condition set: second series; one concentration of 3.125 (FIG. 30A)
assay metric: Activity in inhibiting development of Eimeria tenella in vitro (schizonts and merozoites)

[[record]]
compound = "CCC1(C2OC(C3OC(O)(CO)C(C)CC3C)CC2C)CCC(C2(C)CCC3(CC(O)C(C)C(C(C)C(OC)C(C)C(=O)NCc4cccc(C(=O)OC)c4)O3)O2)O1 (centres unmarked) [Compound 3c]"
result = "no significant activity"

[[record]]
compound = "CCC12CCC(O1)C1(C)CCC3(CC(OC)C(C)C(O3)C(C)C(OC)C(C)C(=O)OCC3(OC)OC(C(C)CC3C)C3CC(C)C2O3)O1 (centres unmarked) [Compound 14a, 7,25-dimethoxylactone]"
result = "no significant activity"

[[record]]
compound = "CCC1(C2OC(C3OC(O)(CO)C(C)CC3C)CC2C)CCC(C2(C)CCC3(CC(O)C(C)C(C(C)C(OC)C(C)C(=O)NC(C(=O)OC)c4ccc(F)cc4)O3)O2)O1 (centres unmarked) [Compound 4c]"
result = "no significant activity"


###

# Tested on: MDBK cells
# test details: Cytotoxicity testing / IC50 determination on MDBK cells (Cell Titer, tetrazolium to formazan, 96-well)
# Type: cell-based, Bovine
# condition set: summary statement
assay metric: Cytotoxicity (summary in words)

[[record]]
compound = "CCC1(C2OC(C3OC(=O)C(C)CC3C)CC2C)CCC(C2(C)CCC3(CC(=O)C(C)C(C(C)C(OC)C(C)C(=O)O)O3)O2)O1 (stereo not shown)"
target_or_system = "MDBK cells"
result = "very low cytotoxicities"

[[record]]
compound = "CCC1(C2OC(C3OC(CO)(OCC(=O)O)C(C)CC3C)CC2C)CCC(C2(C)CCC3(CC(O)C(C)C(C(C)C(OC)C(C)C(=O)O)O3)O2)O1 (stereo not shown)"
target_or_system = "MDBK cells"
result = "very low cytotoxicities"

[[record]]
compound = "CCC1(C2OC(C3OC(CO)(OC)C(C)CC3C)CC2C)CCC(C2(C)CCC3(CC(O)C(C)C(C(C)C(OC)C(C)C(=O)O)O3)O2)O1 (stereo not shown)"
target_or_system = "MDBK cells"
result = "very low cytotoxicities"

[[record]]
compound = "CCC1(C2OC(C3OC4(COC(=O)CO4)C(C)CC3C)CC2C)CCC(C2(C)CCC3(CC(O)C(C)C(C(C)C(OC)C(C)C(=O)O)O3)O2)O1 (stereo not shown)"
target_or_system = "MDBK cells"
result = "very low cytotoxicities"


Source: patent US8822528B2
